Cited source for all entries: patent US20240409645A1

- Subject of test: T1, mouse IL-2Rγ (mouse, UniProt P34902 23-263)
- T1 construct: also called mo IL-2R
- T1 sequence (looked up): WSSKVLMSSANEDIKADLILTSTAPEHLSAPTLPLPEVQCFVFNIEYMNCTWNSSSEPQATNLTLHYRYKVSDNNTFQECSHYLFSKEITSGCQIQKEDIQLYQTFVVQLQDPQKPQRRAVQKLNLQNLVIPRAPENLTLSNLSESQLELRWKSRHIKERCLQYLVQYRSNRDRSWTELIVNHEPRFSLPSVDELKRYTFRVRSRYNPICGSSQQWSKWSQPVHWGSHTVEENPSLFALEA
- Run description: PE binding ELISA, periplasmic extract on coated protein
Measured endpoint: OD (PE binding ELISA) (OD450 nm)

{"Binder": "FJ1427_P035MP04B12 (VHH, VHH in periplasmic extract; also called clone nr) VHH: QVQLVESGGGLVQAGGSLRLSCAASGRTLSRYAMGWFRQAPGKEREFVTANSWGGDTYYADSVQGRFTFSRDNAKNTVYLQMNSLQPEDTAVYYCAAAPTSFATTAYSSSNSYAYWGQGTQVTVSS", "Measured value": 0.074}
{"Binder": "FJ1427_P035MP04E11 (VHH, VHH in periplasmic extract; also called clone nr) VHH: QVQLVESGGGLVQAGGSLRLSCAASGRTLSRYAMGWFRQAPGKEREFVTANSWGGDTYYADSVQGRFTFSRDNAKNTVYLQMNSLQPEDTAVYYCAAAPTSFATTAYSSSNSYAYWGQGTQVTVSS", "Measured value": 0.065}
{"Binder": "FJ1427_P035MP04F07 (VHH, VHH in periplasmic extract; also called clone nr) VHH: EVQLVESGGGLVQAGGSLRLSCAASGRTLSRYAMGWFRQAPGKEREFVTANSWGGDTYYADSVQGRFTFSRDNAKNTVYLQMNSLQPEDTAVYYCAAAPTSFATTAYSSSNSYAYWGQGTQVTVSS", "Measured value": 0.064}
